system-tested: UniProt:P08183
Sequence (P08183 whole entry): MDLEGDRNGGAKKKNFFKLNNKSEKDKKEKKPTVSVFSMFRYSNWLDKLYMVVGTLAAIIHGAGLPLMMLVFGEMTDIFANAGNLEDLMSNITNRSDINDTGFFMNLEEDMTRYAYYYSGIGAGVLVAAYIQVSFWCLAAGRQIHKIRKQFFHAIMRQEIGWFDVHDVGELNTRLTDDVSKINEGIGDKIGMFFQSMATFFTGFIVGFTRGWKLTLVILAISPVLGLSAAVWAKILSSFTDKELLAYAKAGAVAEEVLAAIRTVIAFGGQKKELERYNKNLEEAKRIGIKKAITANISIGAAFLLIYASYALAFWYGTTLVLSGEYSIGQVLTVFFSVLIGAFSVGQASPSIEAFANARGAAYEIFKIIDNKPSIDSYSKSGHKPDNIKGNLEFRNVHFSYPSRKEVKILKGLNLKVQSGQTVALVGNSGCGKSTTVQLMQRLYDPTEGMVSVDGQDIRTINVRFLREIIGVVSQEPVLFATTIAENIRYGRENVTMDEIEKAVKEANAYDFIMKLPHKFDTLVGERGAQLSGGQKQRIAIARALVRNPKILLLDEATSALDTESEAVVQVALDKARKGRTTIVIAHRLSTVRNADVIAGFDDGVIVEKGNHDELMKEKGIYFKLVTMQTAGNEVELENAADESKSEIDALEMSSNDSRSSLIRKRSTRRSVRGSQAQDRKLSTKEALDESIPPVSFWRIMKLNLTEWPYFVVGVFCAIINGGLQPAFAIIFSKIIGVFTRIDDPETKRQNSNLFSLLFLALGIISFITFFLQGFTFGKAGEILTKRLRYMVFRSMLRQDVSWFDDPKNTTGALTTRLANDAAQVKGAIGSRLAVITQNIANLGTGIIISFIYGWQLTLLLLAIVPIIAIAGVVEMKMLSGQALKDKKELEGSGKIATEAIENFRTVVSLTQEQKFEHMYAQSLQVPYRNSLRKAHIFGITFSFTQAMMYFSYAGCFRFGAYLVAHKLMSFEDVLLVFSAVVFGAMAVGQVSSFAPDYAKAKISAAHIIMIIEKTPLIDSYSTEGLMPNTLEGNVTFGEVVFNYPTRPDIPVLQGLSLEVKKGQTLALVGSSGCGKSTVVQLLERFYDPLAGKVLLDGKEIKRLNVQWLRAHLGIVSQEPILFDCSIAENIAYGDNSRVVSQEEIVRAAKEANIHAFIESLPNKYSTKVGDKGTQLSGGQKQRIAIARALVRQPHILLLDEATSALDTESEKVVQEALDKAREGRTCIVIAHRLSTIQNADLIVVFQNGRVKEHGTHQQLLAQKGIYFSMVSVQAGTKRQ
method-notes: Inhibition of human MDR1 expressed in mouse L5178 cells assessed as rhodamine-123 accumulation measured as fluorescence activity ratio at 20 uM after 20 mins by flow cytometry relative to control
Assay type: cell-based
test-context: l5178, 20 min
quantity-measured: Ratio

Check out these entries, answers already filled in.
{"columns": ["molecule", "system-tested", "quantity-measured", "reported-result"],
 "data": [
  ["COC(=O)CN1C(=O)N(CCCCN2CCN(c3ccccc3)CC2)C2(C1=O)c1ccccc1-c1ccccc12", "UniProt:P08183", "Ratio", 70.19],
  ["COc1ccccc1N1CCN(CC(O)CN2C(=O)N(CC(=O)O)C(=O)C2(c2ccccc2)c2ccccc2)CC1 (stereo not drawn)", "UniProt:P08183", "Ratio", 0.86]
]}

A: COc1ccc(CCN(C)CCCC(C#N)(c2ccc(OC)c(OC)c2)C(C)C)cc1OC (stereo not drawn)
B: COC(=O)CN1C(=O)N(CCCCN2CCN(c3ccccc3F)CC2)C2(C1=O)c1ccccc1-c1ccccc12
C: COc1ccccc1N1CCN(CCCCN2C(=O)N(CC(=O)O)C(=O)C2(c2ccccc2)c2ccccc2)CC1
D: COC(=O)CN1C(=O)N(CCCN2CCN(c3ccccc3)CC2)C(c2ccccc2)(c2ccccc2)C1=O
E: O=C(O)CN1C(=O)N(CCCCN2CCN(C(=O)c3ccco3)CC2)C2(C1=O)c1ccccc1-c1ccccc12
Put these in order: smallest Ratio first, largest last. Record the ranking as a list of labels in the requested order.
E, C, A, B, D

P: COC(=O)CN1C(=O)N(CCCCN2CCN(C(=O)c3ccco3)CC2)C2(C1=O)c1ccccc1-c1ccccc12
Q: COC(=O)CN1C(=O)N(CCCCN2CCN(c3cccc(Cl)c3Cl)CC2)C(c2ccccc2)(c2ccccc2)C1=O
Please tell me which of the two, P or Q , has the higher reported Ratio value. Let me know the label of the one you choose.
Q
